# Assay Overview: soluble on expression in E. coli; label from the status in PepcDB or PDB records

{"Residue Sequence": "MNIKKLAILGTLATTFSFEAFASTGMPKIEELTGDTRTACEVILCLSSAQGRGIKECQAPLRKYFSIRAKKWHKTLAKRRAFLDLCPAANENAKMSALTTAIQHQEYACDAGTLNSRTETRRNWVRRSSEDGGSFSRRLVRTQAYIPDFCKALYDHEFTEYKQIQKPKYVCDANKWYSQADWNRGFERVEVSRKWNHREDRYDIQYKDVPIKKDCWELEHHHHHH", "soluble on expression in E. coli": "not soluble"}
{"Residue Sequence": "MTLDDDDYIKQMELQRKAFESQFGSLESMGFEDKTKNIRTEVDTRDSSGDEIDNSDHGSDFKDGTIESSNSSDEDSGNETAEENNQDSKPKTQPKVIRFNGPSDVYVPPSKKTQKLLRSGKTLTQINKKLESTEAKEEKEDETLEAENLQNDLELQQFLRESHLLSAFNNGGSGSTNSGVSLTLQSMGGGNDDGIVYQDDQVIGKARSRTLEMRLNRLSRVNGHQDKINKLEKVPMHIRRGMIDKHVKRIKKYEQEAAEGGIVLSKVKKGQFRKIESTYKKDIERRIGGSIKARDKEKATKRERGLKISSVGRSTRNGLIVSKRDIARISGGERSGKFNGKKKSRR", "soluble on expression in E. coli": "not soluble"}
